Sourced from paper PMC10397247

Target: T1, 4H881-AA
T1 chain: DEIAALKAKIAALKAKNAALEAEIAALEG
Test: two-hybrid library CCmax;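 also: natural log of median RNA to DNA barcode read ratio; higher means stronger binding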
Settings: mean of both orientations
measured_quantity: interaction score

1. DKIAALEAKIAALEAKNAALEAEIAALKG [4H2354-AA]    -0.238
2. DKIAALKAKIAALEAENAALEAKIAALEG [4H2837-AA]    1.65
3. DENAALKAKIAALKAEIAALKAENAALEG [4H1867-AA]    -1.8
4. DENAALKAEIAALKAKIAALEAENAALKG [4H1636-AA]    -1.46
5. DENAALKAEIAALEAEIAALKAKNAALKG [4H1552-AA]    -0.939
6. DEIAALEAKNAALEAKIAALKAKIAALEG [4H429-AA]    -0.143
7. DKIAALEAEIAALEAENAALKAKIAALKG [4H2078-AA]    2.31
8. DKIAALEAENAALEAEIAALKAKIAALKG [4H2190-AA]    0.176

[P] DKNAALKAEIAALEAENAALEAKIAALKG [4H3606-AA]
[Q] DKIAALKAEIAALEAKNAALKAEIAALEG [4H2617-AA]
[R] DEIAALKAEIAALKAENAALKAKIAALEG [4H605-AA]
List by increasing interaction score. Output spec: labels arranged per the requested ranking.
R, Q, P

[I] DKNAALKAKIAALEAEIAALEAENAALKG [4H3844-AA]
[II] DEIAALKAEIAALEAKNAALEAKIAALKG [4H566-AA]
Consider I and II . Which of these has its interaction score at a higher number? Mark your answer with the label of the selected entry.
II
(II: 1.95, I: -0.992)
